Origin of the recorded values: ChEMBL document CHEMBL2163300

- Protocol Description: Plasma protein binding in mouse
- Format: ADME, cell-free
- Condition Notes: read-out: PPB (converted)
Readout Kind: fraction unbound

## Task Query fraction unbound for `CCOc1ccc(Nc2c(C)c(N[C@H]3CCCNC3)nc3ccnn23)cc1`
## Result 0.114

* * *

- Tgt: MAP kinase-activated protein kinase 2 (Homo sapiens, UniProt P49137)
- Sequence (P49137 whole entry): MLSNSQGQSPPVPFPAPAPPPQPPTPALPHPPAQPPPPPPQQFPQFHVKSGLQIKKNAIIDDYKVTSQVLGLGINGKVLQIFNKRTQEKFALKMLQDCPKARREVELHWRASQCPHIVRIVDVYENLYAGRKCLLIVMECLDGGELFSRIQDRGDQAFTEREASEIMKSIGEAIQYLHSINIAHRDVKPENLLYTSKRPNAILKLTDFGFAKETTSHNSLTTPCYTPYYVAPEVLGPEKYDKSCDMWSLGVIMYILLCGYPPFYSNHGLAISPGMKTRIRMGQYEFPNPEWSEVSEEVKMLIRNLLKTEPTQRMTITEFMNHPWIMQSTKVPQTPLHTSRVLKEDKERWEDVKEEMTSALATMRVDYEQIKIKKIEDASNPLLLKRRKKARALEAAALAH
- Protocol Description: Inhibition of human MAPKAP-K2 in THP1 cells assessed as inhibition of LPS-induced TNFalpha production incubated 1 hr prior to LPS challenge measured 18 hrs post LPS challenge by HTRF assay
- Format: cell-based, THP-1
This section presents compounds with their documented IC50 values.
API: value field is a number in µM; no unit string.

## Task Report measured IC50; entry is `COCCOc1ccc(Nc2c(C)c(N[C@H]3CCCNC3)nc3ccnn23)cc1`
## Result 7.6

## Task Supply IC50 value. Item: `Cc1nc2ccc(Nc3c(C)c(N[C@H]4CCCNC4)nc4ccnn34)cc2s1`
## Result 8.4

* * *

- Tgt: MAP kinase-activated protein kinase 2 (Homo sapiens)
- Protocol Description: Inhibition of MAPKAP-K2 using KKLNRTLSVA as substrate and [33P]-gamma-ATP after 30 mins by liquid scintillation counter
Readout Kind: pIC50
Note on pIC50: it is the negative log10 of concentration, concentration in mol/L.

1. Cc1c(N[C@H]2CC[C@H](N)CC2)nc2ccnn2c1Nc1ccccc1Cl :: 5.77
2. Cc1c(N[C@H]2CC[C@H](N)CC2)nc2ccnn2c1Nc1ccc(OCc2ccccc2)cc1 :: 6.15

## Task Respond only with pIC50 recorded for `N#Cc1cnn2c(Nc3ccc(F)c(Cl)c3)cc(N[C@H]3CC[C@H](N)CC3)nc12`
## Result 5.51

## Task Return pIC50 (reported value) for this molecule: `Cc1c(N[C@H]2CCCNC2)nc2ccnn2c1Nc1ccc2c(cnn2C)c1`
## Result 7.12

## Task In one line, give reported pIC50 of the entry `N[C@H]1CC[C@H](Nc2cc(NCC3CCCCC3)n3nccc3n2)CC1` .
## Result 4.96

## Task Check the records and state pIC50 for `CCc1c(N[C@H]2CC[C@H](N)CC2)nc2ccnn2c1Nc1ccccc1Cl`
## Result 5.82

## Task Item `CCOC(=O)c1ccc(Nc2c(C)c(N[C@H]3CC[C@H](N)CC3)nc3ccnn23)cc1` : provide pIC50
## Result 6.15

## Task Entry `CCOc1ccc(Nc2c(C)c(NCCCN)nc3ccnn23)cc1` needs its pIC50 filled in; supply it.
## Result 5.06

## Task Tell me its pIC50 given CCOc1ccc(Nc2c(C)c(N(C)C3CCCNC3)nc3ccnn23)cc1 (racemic) as the entry.
## Result 4.59

* * *

- Tgt: Glycogen synthase kinase-3 beta (Homo sapiens)
- Sequence (P49841 whole entry): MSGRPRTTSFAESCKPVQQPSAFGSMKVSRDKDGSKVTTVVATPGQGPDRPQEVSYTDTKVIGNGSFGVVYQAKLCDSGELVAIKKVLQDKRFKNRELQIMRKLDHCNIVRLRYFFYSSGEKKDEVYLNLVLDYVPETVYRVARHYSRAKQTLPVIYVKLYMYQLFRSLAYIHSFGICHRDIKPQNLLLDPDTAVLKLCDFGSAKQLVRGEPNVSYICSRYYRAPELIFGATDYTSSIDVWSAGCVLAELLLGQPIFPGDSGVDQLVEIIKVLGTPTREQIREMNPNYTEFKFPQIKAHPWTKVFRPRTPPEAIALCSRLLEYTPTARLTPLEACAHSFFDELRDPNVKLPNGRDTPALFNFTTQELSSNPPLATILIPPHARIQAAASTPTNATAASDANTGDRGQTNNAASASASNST
Readout Kind: pIC50
In plain terms, pIC50 is the concentration in mol/L turned into minus its base-10 logarithm.

## Task Return reported pIC50 for target or system Glycogen synthase kinase-3 beta (Homo sapiens), item `N[C@H]1CC[C@H](Nc2cc(Nc3ccc(F)c(Cl)c3)n3nccc3n2)CC1` .
## Result 4.64

* * *

- Test system: Serum
- Protocol Description: Drug level in C57BL/6 mouse serum at 100 mg/kg, po
- Assay type: ADME, organism-based
- Design: dose 100 mg/kg, route oral
- Condition Notes: in vivo, read-out: Drug uptake
Readout Kind: concentration (µM)
Numbers only here, please. The scale is µM.

## Task Return reported concentration. Input molecule: `CCOc1ccc(Nc2c(C)c(N[C@H]3CCCNC3)nc3ccnn23)cc1`
## Result 10
